inhibition for assorted compounds
Assayed target: G/T mismatch-specific thymine DNA glycosylase (Homo sapiens);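 note: human TDG cleavage of quenched duplex DNA oligonucleotides coupled to APE1, strand release read as fluorescence at 594 nm, inhibition of TDG activity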
Details: Compound Concentration 10.0 uM, Hit No
Description: Inhibition of TDG by quantifying inhibition of TDG-mediated cleavage and dissociation of quenched duplex DNA oligonucleotides, measured as fluorescence at 594 nm. To generate a functional strand incision and increase turn-over this assay is coupled to APE1.
Test readout: inhibition (%)

Compound	Number
CNc1nc(Nc2ccccc2)nc(OC(C(F)(F)F)C(F)(F)F)n1	4.54
C[C@@H](Cn1c(=O)[nH]/c(=N\c2ccc(Oc3ccccn3)cc2)n(Cc2ccc(Cl)cc2)c1=O)C(=O)O	23.6
CC[C@H](NC(=O)c1c(C)c(-c2ccccc2)nc2ccccc12)c1ccccc1	-2.42
c1ccc2nc(N3CCNCC3)ccc2c1	12.3
Cc1nc(NC(=O)N2CCC[C@H]2C(N)=O)sc1-c1ccnc(C(C)(C)C(F)(F)F)c1	38
CCCCCCCC/C=C\CCCCCCCC(N)=O	12.1
O=C(NCCCC1CCCCC1)c1ccc(CNC(=O)c2cnn(-c3ccccc3)c2C(F)(F)F)cc1	22.8
CC(C)(C)C1CCc2c(sc(NC(=O)c3ccco3)c2C(=O)O)C1 (stereo not given)	25.9
Cc1cc(NC(=O)NCCN2CCC(O)(Cc3ccccc3)CC2)c2ccccc2n1	11.4
CC(C)(C)c1ccc(C(=O)Nc2cn3cc(-n4ccnc4)ccc3n2)cc1	51.5
O=C(Nc1cnc(Oc2ccc(F)cc2)nc1)N1CCc2ncccc2[C@@H]1c1ccc(F)cc1	49.8
CC(Cc1ccc(O)c(O)c1)C(C)Cc1ccc(O)c(O)c1 (stereo not given)	40
CC[C@H]1CN2CCc3cc(OC)c(OC)cc3[C@@H]2C[C@@H]1C[C@H]1NCCc2cc(OC)c(OC)cc21	-0.514
CCOC(=O)N1CCC(CN(Cc2ccc(Cl)cc2)Cc2ccc([N+](=O)[O-])s2)C1 (stereo not given)	97.5
N[C@@H]1c2cccnc2[C@H](OC(=O)N2CCC(n3c(=O)[nH]c4ncccc43)CC2)CC[C@H]1c1cccc(F)c1F	6.23
Cc1c(OCc2cccc(-c3ccc(C(=O)O)cc3)c2)cc2c(c1C)C(=O)C(C1CCCC1)C2 (stereo not given)	-4.78
CC(C)OC(=O)C1=CN(C(=O)c2ccc(F)c(F)c2)CC(C)(C)c2c1[nH]c1ccccc21	46.7
CCC(=O)N[C@@H]1CC[C@H](C(=O)N(C)c2ccc(-c3nc4ccccc4o3)cc2)C1	37.2
CC(C)NCC(O)c1ccc(N)c(C#N)c1 (stereo not given)	-4.14
CC(C)(O)c1cncc(-c2nc3ccc(F)cc3n2C2CC2)c1	50.2

----------
Assayed target: Methyl-CpG-binding domain protein 4 (Homo sapiens) (UniProt O95243);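 note: MBD4 activity read as fluorescence at 594 nm from cleavage and release of a quenched duplex DNA oligonucleotide, with APE1 coupled to incise the strand and raise turnover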
Sequence (O95243 whole entry, the tested form may be a part): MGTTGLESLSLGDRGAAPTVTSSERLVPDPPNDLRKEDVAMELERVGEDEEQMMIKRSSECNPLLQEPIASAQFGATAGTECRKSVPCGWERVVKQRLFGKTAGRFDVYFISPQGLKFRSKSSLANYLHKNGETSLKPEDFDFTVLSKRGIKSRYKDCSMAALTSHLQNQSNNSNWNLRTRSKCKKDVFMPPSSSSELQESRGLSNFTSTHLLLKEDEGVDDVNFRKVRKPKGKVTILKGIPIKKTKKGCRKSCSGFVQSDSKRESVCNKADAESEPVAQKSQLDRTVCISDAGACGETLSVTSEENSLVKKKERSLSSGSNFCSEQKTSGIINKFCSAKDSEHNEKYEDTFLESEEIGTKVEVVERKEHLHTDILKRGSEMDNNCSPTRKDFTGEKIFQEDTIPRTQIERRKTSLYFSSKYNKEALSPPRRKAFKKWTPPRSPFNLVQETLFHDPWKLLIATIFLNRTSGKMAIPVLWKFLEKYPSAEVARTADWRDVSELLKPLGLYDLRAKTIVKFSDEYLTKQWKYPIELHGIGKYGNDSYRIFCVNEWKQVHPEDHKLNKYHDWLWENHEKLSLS
Details: Compound Concentration 10.0 uM, Hit Yes
Description: Inhibition of MBD4 by quantifying inhibition of MBD4-mediated cleavage and dissociation of quenched duplex DNA oligonucleotides, measured as fluorescence at 594 nm. To generate a functional strand incision and increase turn-over this assay is coupled to APE1.

Compound	inhibition / %
Cc1ccc(OCC(O)C(C)NC(C)C)c2c1CCC2 (stereo not given)	134
C[C@H](CCC(=O)O)[C@H]1CC[C@H]2[C@@H]3CC[C@@H]4C[C@H](O)CC[C@]4(C)[C@H]3CC[C@]12C	140
O=S(=O)(Nc1nnc2cc(OCC34CC5CC(CC(C5)C3)C4)c(C3CC3)cn12)C1CC1	80.9
Brc1c(NC2=NCCN2)ccc2nccnc12	140
CCNC(=O)NS(=O)(=O)c1sc(CC(C)C)cc1-c1ccc(Cn2c(-c3ccccc3)nc(OC)c2C=O)cc1	78.6
CCCCCCNC(=O)Nc1ccc(S(=O)(=O)Nc2ccc(CCNC[C@H](O)COc3ccc(O)cc3)cc2)cc1	102
COc1ccc(NC(=O)c2ccc(-c3ccc(-c4noc(C)n4)cc3C)cc2)cc1OCCN(C)C	98
O=C(NS(=O)(=O)N1CCC1)c1cc(C2CC2)c(OCC23CC4CC(CC(C4)C2)C3)cc1F	87.3
CN(C)CCN(Cc1ccc(-c2ccc(CNCCc3ccccc3)cc2)cc1)C(=O)CCC1CCCC1	78.7
CCCCCNC(=N)N/N=C/c1c[nH]c2ccc(OC)cc12	114
